Reference source: the supplement of paper PMC11246515

Assay: total protein half-life in vivo (active degradation + dilution); higher = more stable protein
Settings: E. coli NCM3722 delta-clpP; growth: N-lim chemostat; doubling time 6 h
Provide the reported total protein half-life in vivo of each item.
All answers are understood in h, so give the number only.

Request: GET /values?readout=total protein half-life in vivo&item= MSAQKPGLHPRNRHHSRYDLATLCQVNPELRQFLTLTPAGEQSVDFANPLAVKALNKALLAHFYAVANWDIPDGFLCPPVPGRADYIHHLADLLAEASGTIPANASILDIGVGANCIYPLIGVHEYGWRFTGSETSSQALSSAQAIISSNPGLNRAIRLRRQKESGAIFNGIIHKNEQYDATLCNPPFHDSAAAARAGSERKRRNLGLNKDDALNFGGQQQELWCEGGEVTFIKKMIEESKGFAKQVMWFTSLVSRGENLPPLYRALTDVGAVKVVKKEMAQGQKQSRFIAWTFMNDEQRRRFVNRQR
Response: 4.08

Request: Now consider MAEIGIFVGTMYGNSLLVAEEAEAILTAQGHKATVFEDPELSDWLPYQDKYVLVVTSTTGQGDLPDSIVPLFQGIKDSLGFQPNLRYGVIALGDSSYVNFCNGGKQFDALLQEQSAQRVGEMLLIDASENPEPETESNPWVEQWGTLLS and answer again.
Response: 6.03

Request: Now consider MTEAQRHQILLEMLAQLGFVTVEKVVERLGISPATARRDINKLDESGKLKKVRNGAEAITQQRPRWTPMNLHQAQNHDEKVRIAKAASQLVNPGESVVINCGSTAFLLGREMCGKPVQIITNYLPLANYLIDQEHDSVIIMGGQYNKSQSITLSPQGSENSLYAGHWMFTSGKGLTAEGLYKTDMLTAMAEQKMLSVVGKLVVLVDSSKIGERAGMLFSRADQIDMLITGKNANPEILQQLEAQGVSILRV [P0A9W0] and answer again.
Response: 5.84

----------
Provide the reported total protein half-life in vivo of each item.
Assay: total protein half-life in vivo (active degradation + dilution); higher = more stable protein
Conditions: wild type E. coli NCM3722; growth: N-lim chemostat; doubling time 6 h
All answers are understood in h, so give the number only.

Request: GET /values?readout=total protein half-life in vivo&item= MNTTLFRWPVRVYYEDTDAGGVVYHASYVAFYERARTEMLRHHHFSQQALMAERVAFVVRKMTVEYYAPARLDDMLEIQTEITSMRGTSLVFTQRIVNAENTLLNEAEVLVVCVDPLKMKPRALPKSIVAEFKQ [P0A8Z3]
Response: 5.28

Request: Now consider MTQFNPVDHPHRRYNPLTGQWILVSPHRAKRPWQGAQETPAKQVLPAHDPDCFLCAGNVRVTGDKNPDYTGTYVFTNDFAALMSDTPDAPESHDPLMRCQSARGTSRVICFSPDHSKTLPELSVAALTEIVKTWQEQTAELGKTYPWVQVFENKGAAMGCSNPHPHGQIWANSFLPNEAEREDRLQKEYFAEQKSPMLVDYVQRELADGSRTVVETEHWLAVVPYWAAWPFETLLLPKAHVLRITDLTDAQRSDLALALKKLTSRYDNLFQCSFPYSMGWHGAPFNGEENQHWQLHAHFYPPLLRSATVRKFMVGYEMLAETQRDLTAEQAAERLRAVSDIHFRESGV and answer again.
Response: 4.16

Request: Now consider MAKSLFRALVALSFLAPLWLNAAPRVITLSPANTELAFAAGITPVGVSSYSDYPPQAQKIEQVSTWQGMNLERIVALKPDLVIAWRGGNAERQVDQLASLGIKVMWVDATSIEQIANALRQLAPWSPQPDKAEQAAQSLLDQYAQLKAQYADKPKKRVFLQFGINPPFTSGKESIQNQVLEVCGGENIFKDSRVPWPQVSREQVLARSPQAIVITGGPDQIPKIKQYWGEQLKIPVIPLTSDWFERASPRIILAAQQLCNALSQVD and answer again.
Response: 5.44

Request: Now consider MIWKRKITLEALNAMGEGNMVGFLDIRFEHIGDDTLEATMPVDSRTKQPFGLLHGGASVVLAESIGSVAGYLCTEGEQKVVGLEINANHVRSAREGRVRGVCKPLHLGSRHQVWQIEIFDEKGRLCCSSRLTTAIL and answer again.
Response: 4.23

Request: Now consider MNYQNDDLRIKEIKELLPPVALLEKFPATENAANTVAHARKAIHKILKGNDDRLLVVIGPCSIHDPVAAKEYATRLLALREELKDELEIVMRVYFEKPRTTVGWKGLINDPHMDNSFQINDGLRIARKLLLDINDSGLPAAGEFLDMITPQYLADLMSWGAIGARTTESQVHRELASGLSCPVGFKNGTDGTIKVAIDAINAAGAPHCFLSVTKWGHSAIVNTSGNGDCHIILRGGKEPNYSAKHVAEVKEGLNKAGLPAQVMIDFSHANSSKQFKKQMDVCADVCQQIAGGEKAIIGVMVESHLVEGNQSLESGEPLAYGKSITDACIGWEDTDALLRQLANAVKARRG [P0AB91] and answer again.
Response: 3.02

Request: Now consider MKLRDSLAENKSIRLQAEAETWQEAVKIGVDLLVAADVVEPRYYQAILDGVEQFGPYFVIAPGLAMPHGRPEEGVKKTGFSLVTLKKPLEFNHDDNDPVDILITMAAVDANTHQEVGIMQIVNLFEDEENFDRLRACRTEQEVLDLIDRTNAAA and answer again.
Response: 3.02

----------
Experiment: total protein half-life in vivo (active degradation + dilution); higher = more stable protein
Conditions: E. coli NCM3722 delta-smpB; growth: N-lim chemostat; doubling time 6 h
Attribute measured: total protein half-life in vivo

Request: GET /values?readout=total protein half-life in vivo&item= MIDYTAAGFTLLQGAHLYAPEDRGICDVLVANGKIIAVASNIPSDIVPNCTVVDLSGQILCPGFIDQHVHLIGGGGEAGPTTRTPEVALSRLTEAGVTSVVGLLGTDSISRHPESLLAKTRALNEEGISAWMLTGAYHVPSRTITGSVEKDVAIIDRVIGVKCAISDHRSAAPDVYHLANMAAESRVGGLLGGKPGVTVFHMGDSKKALQPIYDLLENCDVPISKLLPTHVNRNVPLFEQALEFARKGGTIDITSSIDEPVAPAEGIARAVQAGIPLARVTLSSDGNGSQPFFDDEGNLTHIGVAGFETLLETVQVLVKDYDFSISDALRPLTSSVAGFLNLTGKGEILPGNDADLLVMTPELRIEQVYARGKLMVKDGKACVKGTFETA
Response: 5.3 h

Request: Now consider MERVSITERPDWREKAHEYGFNFHTMYGEPYWCEDAYYKLTLAQVEKLEEVTAELHQMCLKVVEKVIASDELMTKFRIPKHTWSFVRQSWLTHQPSLYSRLDLAWDGTGEPKLLENNADTPTSLYEAAFFQWIWLEDQLNAGNLPEGSDQFNSLQEKLIDRFVELREQYGFQLLHLTCCRDTVEDRGTIQYLQDCATEAEIATEFLYIDDIGLGEKGQFTDLQDQVISNLFKLYPWEFMLREMFSTKLEDAGVRWLEPAWKSIISNKALLPLLWEMFPNHPNLLPAYFAEDDHPQMEKYVVKPIFSREGANVSIIENGKTIEAAEGPYGEEGMIVQQFHPLPKFGDSYMLIGSWLVNDQPAGIGIREDRALITQDMSRFYPHIFVE [P0ADT5] and answer again.
Response: 4.3 h

Request: Now consider MLIRVEIPIDAPGIDALLRRSFESDAEAKLVHDLREDGFLTLGLVATDDEGQVIGYVAFSPVDVQGEDLQWVGMAPLAVDEKYRGQGLARQLVYEGLDSLNEFGYAAVVTLGDPALYSRFGFELAAHHDLRCRWPGTESAFQVHRLADDALNGVTGLVEYHEHFNRF and answer again.
Response: 3.73 h

Request: Now consider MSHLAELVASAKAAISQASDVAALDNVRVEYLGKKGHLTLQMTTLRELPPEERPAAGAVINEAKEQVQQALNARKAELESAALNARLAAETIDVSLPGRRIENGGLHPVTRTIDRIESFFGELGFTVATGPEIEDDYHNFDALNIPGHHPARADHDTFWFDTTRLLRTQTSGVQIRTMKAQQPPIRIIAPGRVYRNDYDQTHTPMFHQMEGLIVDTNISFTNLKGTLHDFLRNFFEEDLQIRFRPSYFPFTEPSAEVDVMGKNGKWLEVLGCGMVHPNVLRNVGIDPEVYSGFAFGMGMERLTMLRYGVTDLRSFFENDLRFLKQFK and answer again.
Response: 4.98 h

Request: Now consider MSQLTHINAAGEAHMVDVSAKAETVREARAEAFVTMRSETLAMIIDGRHHKGDVFATARIAGIQAAKRTWDLIPLCHPLMLSKVEVNLQAEPEHNRVRIETLCRLTGKTGVEMEALTAASVAALTIYDMCKAVQKDMVIGPVRLLAKSGGKSGDFKVEADD [P0A738] and answer again.
Response: 3.95 h

Request: Now consider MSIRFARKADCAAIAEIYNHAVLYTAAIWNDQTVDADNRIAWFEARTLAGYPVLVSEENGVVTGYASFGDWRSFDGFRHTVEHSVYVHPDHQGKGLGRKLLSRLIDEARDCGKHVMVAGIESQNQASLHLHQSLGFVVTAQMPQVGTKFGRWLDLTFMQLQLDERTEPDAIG and answer again.
Response: 4.66 h

Request: Now consider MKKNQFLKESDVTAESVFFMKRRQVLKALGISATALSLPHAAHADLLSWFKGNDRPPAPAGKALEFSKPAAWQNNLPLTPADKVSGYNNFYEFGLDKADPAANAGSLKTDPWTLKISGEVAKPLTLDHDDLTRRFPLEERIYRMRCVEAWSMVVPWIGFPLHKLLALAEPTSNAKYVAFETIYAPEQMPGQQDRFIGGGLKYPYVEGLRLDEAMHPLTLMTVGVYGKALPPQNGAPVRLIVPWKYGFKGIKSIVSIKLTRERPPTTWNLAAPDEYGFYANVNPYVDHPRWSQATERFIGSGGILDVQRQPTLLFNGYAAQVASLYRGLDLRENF and answer again.
Response: 5.33 h

Request: Now consider MPTKPPYPREAYIVTIEKGKPGQTVTWYQLRADHPKPDSLISEHPTAQEAMDAKKRYEDPDKE [P0AAN5] and answer again.
Response: 4.72 h

Request: Now consider MPPRALLLVDLQNDFCAGGALAVPEGDSTVDVANRLIDWCQSRGEAVIASQDWHPANHGSFASQHGVEPYTPGQLDGLPQTFWPDHCVQNSEGAQLHPLLHQKAIAAVFHKGENPLVDSYSAFFDNGRRQKTSLDDWLRDHEIDELIVMGLATDYCVKFTVLDALQLGYKVNVITDGCRGVNIQPQDSAHAFMEMSAAGATLYTLADWEETQG and answer again.
Response: 3.78 h

Request: Now consider MSDERYQQRQQRVKEKVDARVAQAQDERGIIIVFTGNGKGKTTAAFGTATRAVGHGKKVGVVQFIKGTWPNGERNLLEPHGVEFQVMATGFTWDTQNRESDTAACREVWQHAKRMLADSSLDMVLLDELTYMVAYDYLPLEEVVQALNERPHQQTVIITGRGCHRDILELADTVSELRPVKHAFDAGVKAQIGIDY [P0A9H5] and answer again.
Response: 4.17 h

Request: Now consider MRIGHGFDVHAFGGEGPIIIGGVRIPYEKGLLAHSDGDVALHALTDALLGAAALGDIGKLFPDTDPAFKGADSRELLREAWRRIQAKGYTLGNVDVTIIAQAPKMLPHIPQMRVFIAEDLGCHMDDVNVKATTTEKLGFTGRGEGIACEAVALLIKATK and answer again.
Response: 4.88 h

Request: Now consider MQTKKNEIWVGIFLLAALLAALFVCLKAANVTSIRTEPTYTLYATFDNIGGLKARSPVSIGGVVVGRVADITLDPKTYLPRVTLEIEQRYNHIPDTSSLSIRTSGLLGEQYLALNVGFEDPELGTAILKDGDTIQDTKSAMVLEDLIGQFLYGSKGDDNKNSGDAPAAAPGNNETTEPVGTTK and answer again.
Response: 6.07 h
